Origin of values: PubChem BioAssay (NCATS)

# assay_protocol: Quantitative highthroughput screen to assess conditional lethalithy of NOMO1 cells grown in RPMI1640 with untreated serum (RPMI+s) (AID 1963876); further: nearly all actives have a fitted effect of over 35% in size;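 on viability: 100% = DMSO wells and 0% = empty wells without cells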
# reported_conditions: NOMO1 AML cells in RPMI+serum, CellTiter-Glo viability, 48 h; series mostly up to 45.8 µM
Inconclusive results are not listed. Active and inactive are the calls of the source. The call rests on the fitted dose curve; in most records, active means well fitted cell-killing curve with a large enough effect; inconclusive means small, poorly fitted or top-dose-only effect; inactive means flat fitted curve, though single readings scatter.
Outcomes you can answer with include only these: active, inactive

Previously resolved entries follow.
Cc1cncc2cccc(S(=O)(=O)N3CCCN(C(=O)CN)C[C@@H]3C)c12: active
CS(=O)(=O)c1ccc(-c2cnc(N)c(C(=O)Nc3ccccc3)n2)cc1: inactive
Cn1c(=O)c(-c2c(Cl)cccc2Cl)cc2cnc(Nc3cccc(C(=O)O)c3)nc21: inactive
COc1cc2nccc(Oc3ccc(NC(=O)C4(C(=O)Nc5ccc(F)cc5)CC4)cc3)c2cc1OC: inactive
CC(C)(OCc1nn(Cc2ccccc2)c2ccccc12)C(=O)O: inactive

Per the assay record, what outcome was assigned to Cn1cc(-c2ccc3nnc(C(F)(F)c4ccc5ncccc5c4)n3n2)cn1 ?
inactive

Per the assay record, what outcome was assigned to CCNC(=O)Nc1ccc(Oc2ncnc(N)c2C=NOC)cc1Cl ?
inactive

====

# assay_protocol: Viability qHTS for spleen associated tyrosine kinase inhibitor (SYKi) drug resistant MV4-11 cells (AID 1963824); further: nearly all actives have a fitted effect of over 35% in size
# reported_conditions: SYKi-resistant MV4-11 viability, CellTiter-Glo, 72 h; series mostly up to 45 µM
Inconclusive results are not listed. Calls of active or inactive are those of the source. Calls follow the shape of the dose curve; as a rule, active = well fitted cell-killing curve with a large enough effect; inconclusive = small, poorly fitted or top-dose-only effect, or effect the other way; inactive = no such curve, though single readings can be large or run the other way.
Outcomes you can answer with include only these: true (1) (active), false (0) (inactive)

Previously resolved entries follow.
COc1c(C)c(OCC(O)C(C)(C)O)cc2c1CNC2=O (stereo not given): false (0)
CC(C)C(=O)Nc1cccc(C2CN3CCSC3=N2)c1 (stereo not given): false (0)
NC(=O)c1noc([C@H](CCCC2CCCCC2)CC(=O)NO)n1: true (1)
CNS(=O)(=O)c1ccccc1Nc1nc(Nc2ccc(N3CCN(C)CC3)cc2OC)ncc1Cl: true (1)
O[C@@H](CNC[C@H](O)[C@H]1CCc2cc(F)ccc2O1)[C@@H]1CCc2cc(F)ccc2O1: true (1)
Cc1cccc(/C=N/Nc2cc(N3CCOCC3)n3nc(-c4ccncc4)cc3n2)c1: true (1)
CC(=O)/C=C/[C@H]1[C@](C)(O)[C@@H](O)[C@H](OC(C)=O)C2C(C)(C)CCC[C@@]21C (stereo not given in full): false (0)
COCC1OC(n2cnc3c(=O)[nH]cnc32)C(O)C1O (stereo not given): false (0)
C=C1CC[C@@H](O)[C@]2(C)C[C@H]3OC(=O)C(=C)[C@H]3CC12 (stereo not given in full): true (1)
Nc1nc(-c2ccccc2)c(Br)c(=O)[nH]1: false (0)

Per the assay record, what outcome was assigned to CC1=C(C(=O)O)/C(=C/CO[C@@H]2O[C@H](COC(=O)/C=C/c3ccc(O)cc3)[C@@H](O)[C@H](O)[C@H]2O)C(O)C1 (stereo not given in full) ?
false (0)

Per the assay record, what outcome was assigned to CCNC(=O)Nc1ccc(-c2nc3c(c(N4CCOC[C@H]4C)n2)CCN(C2COC2)C3)cc1 ?
true (1)

====

# assay_protocol: Quantitative highthroughput screen to assess conditional lethalithy of P12 Ichikawa cells grown in RPMI1640 with untreated serum (RPMI+s) (AID 1963881); further: nearly all actives have a fitted effect of over 35% in size;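 on viability: 100% = DMSO wells and 0% = empty wells without cells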
# reported_conditions: ATP luminescence, 48 h; viability; series mostly up to 45.8 µM
Results filed as inconclusive are left out. Activity calls are given as the source filed them. Calls follow the shape of the dose curve; as a rule, active = well fitted cell-killing curve with a large enough effect; inconclusive = small, poorly fitted or top-dose-only effect; inactive = flat fitted curve, though single readings scatter.
Outcomes you can answer with include only these: active, inactive

O=C(O)C1CCCN(CCC=C(c2ccccc2)c2ccccc2)C1 (stereo not given): inactive
Oc1cc2c(cc1O)C1c3ccc(O)c(O)c3OCC1(O)C2 (stereo not given): inactive
CNC(=O)c1ccc(N2C(=S)N(c3cnc(C#N)c(C(F)(F)F)c3)C(=O)C23CCC3)cc1F: inactive
C[C@H](NCc1ccc2c(c1)nc(NC(=O)c1ccc(-c3cn[nH]c3)s1)n2CCc1ccccc1)C(C)(C)C: active
CN(C)CCN(Cc1ccc(Cl)cc1)c1ccccn1: inactive
CC(C)(N)c1ccc(-c2nc3ccccc3nc2-c2ccccc2)cc1: active
CC(=O)OC[C@@H]1O[C@@H](n2ccc(=O)[nH]c2=O)[C@H](OC(C)=O)[C@H]1OC(C)=O: inactive
COc1cc([C@@H]2c3cc4c(cc3[C@@H](O[C@@H]3O[C@@H]5CO[C@@H](c6cccs6)O[C@@H]5[C@H](O)[C@@H]3O)[C@H]3COC(=O)[C@H]23)OCO4)cc(OC)c1O: active

Per the assay record, what outcome was assigned to O=c1c(-c2ccc(O)cc2)coc2cc(O)cc(O)c12 ?
inactive

Per the assay record, what outcome was assigned to O=C(Nc1cc(C(F)(F)F)cc(C(F)(F)F)c1)c1cc(Cl)ccc1O ?
active

====

# assay_protocol: Cellular viability qHTS for adrenocortical cancer (ACC) cell line SW-13 (AID 1963989); further: potency means the concentration at half of the fitted maximal effect; nearly all actives have a fitted effect of over 65% in size
# reported_conditions: SW-13 ACC cells viability, CellTiter-Glo, 48 h
Inconclusive results are not listed. Activity calls are given as the source filed them. Calls come from the whole dose curve; as a rule, active = well fitted cell-killing curve with a large enough effect; inconclusive = small, poorly fitted or top-dose-only effect; inactive = flat fitted curve, though single readings scatter.
Entries annotated with measured Potency

Worked cases, Potency given:
CCCCCCCCCCCCCCCC[N+](C)(C)CC: 5.17 µM (active)
Cc1c(CN2CCC(Nc3ncnc4sc(CC(F)(F)F)cc34)CC2)ccc2c1cc(C#N)n2Cc1cn[nH]c1: 4.47 µM (active)
c1ccc2c(CCNc3ccc(Nc4ccncc4)cc3)c[nH]c2c1: 1.58 µM (active)

Next compound, please.
Recorded Potency of COc1cc([C@@H]2c3cc4c(cc3[C@@H](O[C@@H]3O[C@@H]5CO[C@@H](c6cccs6)O[C@H]5[C@H](O)[C@H]3O)[C@H]3COC(=O)[C@H]23)OCO4)cc(OC)c1O , please.
2.51 µM (active)

====

# assay_protocol: Quantitative highthroughput screen to assess conditional lethalithy of P12 Ichikawa cells grown in RPMI1640 with untreated serum (RPMI+s) (AID 1963881); further: nearly all actives have a fitted effect of over 35% in size; further: potency means the concentration at half of the fitted maximal effect;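 on viability: 100% = DMSO wells and 0% = empty wells without cells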
# reported_conditions: ATP luminescence, 48 h; viability; series mostly up to 45.8 µM
Inconclusive results are not listed. Active and inactive are the calls of the source. The call rests on the fitted dose curve; in most records, active means well fitted cell-killing curve with a large enough effect; inconclusive means small, poorly fitted or top-dose-only effect; inactive means flat fitted curve, though single readings scatter.
result_type: Potency

Oc1ccc(-c2ccc(-c3cc(Nc4cccc(CNC5CC5)c4)n[nH]3)cc2)c(O)c1: 2.35 µM (active)
CC1=C(C(=O)O)N2C(=O)[C@@H](NC(=O)C(N)c3ccccc3)[C@H]2SC1 (some centres undefined): inactive
CCn1cc(C(=O)O)c(=O)c2cc(F)c(N3CCN(C)CC3)cc21: 4.18 µM (active)
COc1cc(OC)c(C=CS(=O)(=O)Cc2ccc(OC)c(NCC(=O)O)c2)c(OC)c1: 0.235 µM (active)
CCCCCCCCc1ccc(CCC(N)(CO)CO)cc1: 18.7 µM (active)
Cc1cc(CN2CCN(c3c(Br)cnc4nc(-c5ccc(N6CCN(C)CC6)cc5)[nH]c34)CC2)no1: 0.935 µM (active)
CCOC(=O)[C@H]1O[C@H]1C(=O)N[C@@H](CC(C)C)C(=O)NCCC(C)C: inactive
Cn1c(Nc2ccc(C(F)(F)F)cc2)nc2cc(Oc3ccnc(-c4ncc(C(F)(F)F)[nH]4)c3)ccc21: 14.8 µM (active)

Recorded Potency of COc1ccc2c(c1)CC[C@H]1[C@@H]2CC[C@]2(C)[C@@H](NCCCCCCN3C(=O)C=CC3=O)CC[C@H]12 , please.
inactive

====

# assay_protocol: Quantitative highthroughput screen to assess conditional lethalithy of SEM cells grown in RPMI1640 with unreated serum (RPMI+s) (AID 1963883); further: nearly all actives have a fitted effect of over 35% in size;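 on viability: 100% = DMSO wells and 0% = empty wells without cells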
# reported_conditions: SEM B-ALL cells, CellTiter-Glo viability, 48 h; series mostly up to 45.8 µM
Results filed as inconclusive are left out. The source made the active and inactive calls. The call rests on the fitted dose curve; in most records, active means well fitted cell-killing curve with a large enough effect; inconclusive means small, poorly fitted or top-dose-only effect, or effect the other way; inactive means no such curve, though single readings can be large or run the other way.
Outcomes you can answer with include only these: 1 = active, -1 = inactive

Previously resolved entries follow.
O=c1cc(-c2cccc3c2Sc2ccccc2S3)oc(N2CCOCC2)c1: -1
Oc1cc(O)cc(C=Cc2ccc(O)c(O)c2)c1: 1
C=C1C(=O)[C@@]23C(CC[C@@H]1[C@H]2O)[C@@]12CO[C@]3(O)[C@@H](O)[C@@H]1C(C)(C)CC[C@@H]2O (stereo not given in full): 1
NC(N)=Nc1nc(CSCCC(N)=NS(N)(=O)=O)cs1: -1
Cc1coc2c1C(=O)C(=O)c1c-2ccc2c1CCCC2(C)C: -1

Per the assay record, what outcome was assigned to Cc1cccc(N(C)C(=S)Oc2ccc3ccccc3c2)c1 ?
-1

Per the assay record, what outcome was assigned to C[C@H]1Oc2cc(cnc2N)-c2c(nn(C)c2C#N)CN(C)C(=O)c2ccc(F)cc21 ?
-1

Per the assay record, what outcome was assigned to O=C(O)c1cc(=O)c2c(OCC(O)COc3cccc4oc(C(=O)O)cc(=O)c34)cccc2o1 ?
-1

Per the assay record, what outcome was assigned to CCN(c1ccccc1)c1cc(NC)[n+](C)c(C)n1 ?
-1

Per the assay record, what outcome was assigned to CO[C@H]1C=CO[C@@]2(C)Oc3c(C)c(O)c4c(O)c(c5c(c4c3C2=O)NC2(CCN(CC(C)C)CC2)N=5)=NC(=O)C(C)=CC=C[C@H](C)[C@H](O)[C@@H](C)[C@@H](O)[C@@H](C)[C@H](OC(C)=O)[C@H]1C ?
-1
